System: NCI-H358
Test: relative viability (nuclei count vs DMSO), 5 days (fraction); higher = more cells survive
Details: first compound 0.08 µM
Recorded relative viability by entry

INSERT INTO measurements (compound, value_reported) VALUES
  ('C=C1C(=O)O[C@@H](CCCCCCCC)[C@@H]1C(=O)O [C-75] + CC(=O)c1c(C)c2cnc(Nc3ccc(N4CCNCC4)cn3)nc2n(C2CCCC2)c1=O [Palbociclib] (partner 0.5 µM)', 0.137),
  ('C=C1C(=O)O[C@@H](CCCCCCCC)[C@@H]1C(=O)O [C-75] + CCNC(=O)c1noc(-c2cc(C(C)C)c(O)cc2O)c1-c1ccc(CN2CCOCC2)cc1 [Luminespib] (partner 0.01 µM)', 0.338),
  ('C=C1C(=O)O[C@@H](CCCCCCCC)[C@@H]1C(=O)O [C-75] + Nc1nc2[nH]cc(CCc3ccc(C(=O)N[C@@H](CCC(=O)O)C(=O)O)cc3)c2c(=O)[nH]1 [Pemetrexed] (partner 0.2 µM)', 0.169);

Given item Oc1nc(-c2ccc(C(F)(F)F)cc2)nc2c1CSCC2 [XAV939] + CS(=O)(=O)CCNCc1ccc(-c2ccc3ncnc(Nc4ccc(OCc5cccc(F)c5)c(Cl)c4)c3c2)o1 [Lapatinib] (partner 2 µM) , the value recorded as its relative viability is 0.502

The compound Oc1nc(-c2ccc(C(F)(F)F)cc2)nc2c1CSCC2 [XAV939] + CS(=O)(=O)N1CCN(Cc2cc3nc(-c4cccc5[nH]ncc45)nc(N4CCOCC4)c3s2)CC1 [Pictilisib] (partner 1 µM) showed relative viability equal to 0.306
